Reference source: ChEMBL document CHEMBL1142479

experiment: Binding affinity to trans-activation response RNA by surface plasmon resonance
Kd values, listed per item
Value expressed in µM; do not type the unit.

INSERT INTO assay_data (compound, reportedmetric, reported) VALUES
  ('NC[C@H]1O[C@H](O[C@H]2[C@@H](NCCNC(=O)[C@H]3O[C@@H](n4ccc(=O)[nH]c4=O)C[C@@H]3OP(=O)(O)OC[C@H]3O[C@@H](n4ccc(=O)[nH]c4=O)C[C@@H]3O)[C@@H](O)[C@H](N)C[C@@H]2N)[C@H](N)[C@@H](O)[C@@H]1O', 'Kd', 417),
  ('Cc1cn([C@H]2C[C@H](O)[C@@H](COP(=O)(O)O[C@H]3C[C@H](n4ccc(=O)[nH]c4=O)O[C@@H]3C(=O)NCCN[C@H]3[C@@H](O)[C@H](N)C[C@H](N)[C@H]3O[C@H]3O[C@H](CN)[C@@H](O)[C@H](O)[C@H]3N)O2)c(=O)[nH]c1=O', 'Kd', 1000);

Let us examine a further case.
Recorded Kd for NC[C@H]1O[C@H](O[C@H]2[C@H](O)[C@@H](O)[C@H](N)C[C@@H]2N)[C@H](N)[C@@H](O)[C@@H]1O [NEAMINE] , please?
11
